Please respond with reported tissue uptake at 120 h for every item in the list.
protocol summary: Biodistribution of 177Lu-labeled αMSH analogues in mice bearing SK-MEL-1 human melanoma
condition context: male, NRG (NOD.Cg-Rag1tm1Mom Il2rgtm1Wjl/SzJ), mouse, kidneys, total radioactivity
Answers are plain numbers, in %ID/g.

Can you give me tissue uptake at 120 h for all of these, one by one?
1. CCCC[C@H](NC(=O)CN1CCC(NC(=O)[C@H](CCCCNC(=O)CN2CCN(CC(=O)O)CCN(CC(=O)O)CCN(CC(=O)O)CC2)NC(=O)[C@H](CCC(=O)O)NC(=O)CCCc2ccc(I)cc2)CC1)C(=O)N[C@H]1CC(=O)NCCCC[C@@H](C(N)=O)N(C)C(=O)[C@H](Cc2c[nH]c3ccccc23)NC(=O)[C@H](CCCNC(=N)N)N(C)C(=O)[C@@H](Cc2ccccc2)NC(=O)[C@H](Cc2c[nH]cn2)NC1=O [^177Lu-labeled CCZ01118, metal not drawn]
2. CCCC[C@H](NC(=O)CN1CCC(NC(=O)[C@H](CCCCNC(=O)CN2CCN(CC(=O)O)CCN(CC(=O)O)CCN(CC(=O)O)CC2)NC(=O)CNC(=O)CCCc2ccc(I)cc2)CC1)C(=O)N[C@H]1CC(=O)NCCCC[C@@H](C(N)=O)N(C)C(=O)[C@H](Cc2c[nH]c3ccccc23)NC(=O)[C@H](CCCNC(=N)N)N(C)C(=O)[C@@H](Cc2ccccc2)NC(=O)[C@H](Cc2c[nH]cn2)NC1=O [^177Lu-labeled CCZ01148, metal not drawn]

1. 1.69
2. 4.08

Field request: tissue uptake at 120 h | item: CCCC[C@H](NC(=O)CN1CCC(NC(=O)[C@H](CCCCNC(=O)CN2CCN(CC(=O)O)CCN(CC(=O)O)CCN(CC(=O)O)CC2)NC(=O)CNC(=O)CCCc2ccc(-c3ccc(C)cc3)cc2)CC1)C(=O)N[C@H]1CC(=O)NCCCC[C@@H](C(N)=O)N(C)C(=O)[C@H](Cc2c[nH]c3ccccc23)NC(=O)[C@H](CCCNC(=N)N)N(C)C(=O)[C@@H](Cc2ccccc2)NC(=O)[C@H](Cc2c[nH]cn2)NC1=O [^177Lu-labeled CCZ01158, metal not drawn]
3.26
